test: Selectivity index, ratio of IC50 for african green monkey Vero cells to IC50 for Candida krusei ATCC 6258; format: toxicity, cell-based; details: read-out: Ratio IC50
Test readout: selectivity ratio
Quick one: just the number, no unit, thanks!

{"Compound": "CC(C)=CCCc1ccc2c(c1)C(=O)C(Cl)=CC2=O", "selectivity ratio": 10.9}

Attention now turns to another entry.
Exam item: # query: selectivity ratio of entry CC1(C)CCCc2cc3c(cc21)C(=O)C=CC3=O
Marked response: 2.2

====

Each entry below lists one item and its recorded MIC90 value.
system: Aspergillus flavus; experiment: Antifungal activity against Aspergillus flavus ATCC 204304 after 48 hrs; format: functional; conditions: ATCC 204304, 48 h

{"Molecule": "CC(C)CCCc1ccc2c(c1)C(=O)C(Cl)=C(Cl)C2=O", "Recorded value": "> 32 µg/mL"}
{"Molecule": "C[C@@H]1[C@H](O)[C@@H](C)/C=C/C=C/C=C/C=C/C=C/C=C/C=C/[C@H](O[C@@H]2O[C@H](C)[C@@H](O)[C@H](N)[C@@H]2O)C[C@@H]2O[C@](O)(C[C@@H](O)C[C@@H](O)[C@H](O)CC[C@@H](O)C[C@@H](O)CC(=O)O[C@H]1C)C[C@H](O)[C@H]2C(=O)O [AMPHOTERICIN B]", "Recorded value": "4 µg/mL"}

Attention now turns to another entry.
Exam item: # query: MIC90 of entry COc1ccc(NC2=C(Br)C(=O)c3cc(CCCC(C)C)ccc3C2=O)cc1
Marked response: > 32 µg/mL

====

Each entry below lists one item and its recorded MIC90 value.
test system: Aspergillus flavus; assay: Antifungal activity against Aspergillus flavus ATCC 204304 after 48 hrs; type: functional; conditions: ATCC 204304, 48 h

{"Compound": "Cc1cc(C)c2c3c(oc2c1)C(=O)c1cc(CCCC(C)C)ccc1C3=O", "MIC90": "> 32 µg/mL"}
{"Compound": "CC(C)=CCCc1ccc2c(c1)C(=O)C=CC2=O", "MIC90": "> 32 µg/mL"}
{"Compound": "CCC(C)n1ncn(-c2ccc(N3CCN(c4ccc(OCC5COC(Cn6cncn6)(c6ccc(Cl)cc6Cl)O5)cc4)CC3)cc2)c1=O (stereo not given)", "MIC90": "0.1 µg/mL"}
{"Compound": "CC1(C)CCCc2cc3c(cc21)C(=O)C(Cl)=C(Cl)C3=O", "MIC90": "4.8 µg/mL"}
{"Compound": "Cc1ccc2[nH]c3c(c2c1)C(=O)c1ccc(CCCC(C)C)cc1C3=O", "MIC90": "> 32 µg/mL"}

Exam item: Recall the recorded MIC90 for CCNC1=CC(=O)c2cc3c(cc2C1=O)C(C)(C)CCC3 with Aspergillus flavus and state it.
Marked response: > 32 µg/mL

Exam item: Recall the recorded MIC90 for COc1cc(NC2=C(Cl)C(=O)c3cc4c(cc3C2=O)C(C)(C)CCC4)cc(OC)c1OC with Aspergillus flavus and state it.
Marked response: > 32 µg/mL

Exam item: Recall the recorded MIC90 for CC(C)CCCc1ccc2c(c1)C(=O)C(Br)=C(Br)C2=O with Aspergillus flavus and state it.
Marked response: 32 µg/mL

Exam item: Recall the recorded MIC90 for COc1ccc(NC2=C(Cl)C(=O)c3cc(CCCC(C)C)ccc3C2=O)cc1 with Aspergillus flavus and state it.
Marked response: > 32 µg/mL

Exam item: Recall the recorded MIC90 for CC1(C)CCCc2cc3c(cc21)C(=O)C=CC3=O with Aspergillus flavus and state it.
Marked response: > 32 µg/mL
